- procedure_details: Solubility at pH 0.1
- Format: physicochemical
- condition_parameters: buffer
property_name: solubility (µg/mL)

a = Cc1ccccc1-c1c(N)c(C(=O)c2ccc(F)cc2F)cc[n+]1[O-]
b = Nc1c(C(=O)c2ccc(F)cc2F)cc[n+]([O-])c1-c1ccccc1Cl
c = Cc1cc(C(=O)O)ccc1-c1c(N)c(C(=O)c2ccc(F)cc2F)cc[n+]1[O-]
**Query** Sort low-to-high on solubility, please. Returns: the labels listed in the requested order.
**Result** c, b, a
(c: 41 µg/mL, b: 66 µg/mL, a: 110 µg/mL)

###

- procedure_details: Half life in rat at 0.5 mg/kg, iv
- Assay type: ADME, organism-based
- Parameters: dose 0.5 mg/kg, route intravenous
- condition_parameters: in vivo
property_name: half-life (h)
Dear colleague, please return just the value in h, with no unit written.

**Query** Recorded half-life for Cc1ccccc1-c1c(N)c(C(=O)c2ccc(F)cc2F)cc[n+]1[O-] , please?
**Result** 1.6
